Target: Beta Secretase enzyme (BACE) (Homo sapiens, UniProt P56817)
Sequence (P56817 46-501): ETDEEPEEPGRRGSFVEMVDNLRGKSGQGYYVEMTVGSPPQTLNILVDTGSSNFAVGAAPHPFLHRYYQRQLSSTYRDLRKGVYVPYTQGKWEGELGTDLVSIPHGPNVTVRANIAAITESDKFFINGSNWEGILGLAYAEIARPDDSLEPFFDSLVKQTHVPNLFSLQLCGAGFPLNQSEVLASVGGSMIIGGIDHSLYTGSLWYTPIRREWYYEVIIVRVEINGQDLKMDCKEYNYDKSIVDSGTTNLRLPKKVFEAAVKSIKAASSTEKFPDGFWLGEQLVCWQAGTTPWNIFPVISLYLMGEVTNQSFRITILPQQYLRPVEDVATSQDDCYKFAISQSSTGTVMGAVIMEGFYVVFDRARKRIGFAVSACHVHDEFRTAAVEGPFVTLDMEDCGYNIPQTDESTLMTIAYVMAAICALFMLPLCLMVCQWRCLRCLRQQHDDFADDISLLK
Experiment: In vitro enzymatic BACE FRET assay
Type: biochemical
Conditions: average IC50, in vitro enzymatic BACE FRET assay; read-out: BACE1 FRET assay IC50
Experimental: In Vitro Enzymatic BACE FRET (Fluorescence Resonance Energy Transfer) Assay (Enzyme Assay Data in the Example Table I) The assay buffer used in this screen is 0.05 M acetate, pH 4.2, 10% DMSO final, 100 uM genapol (which is a nonionic detergent, below its Critical Micelle Concentration). […] The FRET assay is terminated with by addition of Tris buffer, which raises the pH to neutrality, and the fluorescence is determined. […]
measured.metric: IC50 (nM)
Quick reminder: number only, in nM, skip the unit.

Guide cases for IC50, answers given:
C[C@H]1C[C@@H]2[C@](C)(N=C(N)C(C)(C)S2(=O)=O)c2cc(Nc3nccc4cc(C(F)(F)F)cnc34)ccc2O1 [Example 131] | 5
Cc1cc(C(F)(F)F)cnc1C(=O)Nc1ccc2c(c1)[C@@]1(CF)N=C(N)C(C)(C)S(=O)(=O)[C@H]1C[C@H](C)O2 [Example 105] | 4
C[C@H]1C[C@@H]2[C@](C)(N=C(N)C(C)(C)S2(=O)=O)c2cc(NC(=O)c3cnc(OCc4ccn(C)n4)cn3)ccc2O1 [Example 82] | 5

What measured IC50 goes with Cc1cc(OC(F)F)cnc1C(=O)Nc1ccc2c(c1)[C@@]1(C)N=C(N)C(C)(C)S(=O)(=O)[C@@H]1CCO2 [Example 157] ?
2

// same read-out, input: Cc1cc(Cl)cnc1C(=O)Nc1ccc2c(c1)[C@@]1(C)N=C(N)C(C)(C)S(=O)(=O)[C@@]1(F)CCO2 [Example 87]
2

Follow-up entry: C#CCOc1cnc(C(=O)Nc2ccc3c(c2)[C@@]2(C)N=C(N)C(C)(C)S(=O)(=O)[C@@H]2C[C@H](C)O3)cn1 [Example 142]
1

----------
Target: UniProt P56817
Assay: In vitro enzymatic BACE FRET assay
Format: biochemical
Details: average IC50; read-out: BACE1 FRET assay IC50
A collection of compounds and their measured pIC50
Entry type: numeric. Quantity: pIC50, the -log10 of concentration in molar units.

Sample answers from the record:
CC#CC(C)Oc1cnc(C(=O)Nc2ccc3c(c2)[C@@]2(C)N=C(N)C(C)(C)S(=O)(=O)[C@@H]2CCO3)cn1 (mixture of isomers) [Example 14] | 8.30
CC#C[C@H](C)Oc1cnc2c(Nc3ccc4c(c3)[C@@]3(C)N=C(N)C(C)(C)S(=O)(=O)[C@@H]3CCO4)ncc(F)c2c1 (single isomer, unassigned) [Example 70] | 8.52
Cc1cc(C#N)cnc1C(=O)Nc1cnc2c(c1)[C@@]1(C)N=C(N)C3(CCC3)S(=O)(=O)[C@@H]1CCO2 [Example 62] | 7.82

Quick one: pIC50 of CC1(C)C(N)=N[C@]2(C)c3cc(NC(=O)c4ccc(C#CC5CC5)cn4)ccc3OCC[C@H]2S1(=O)=O [Example 193] ?
8.40

Then C[C@H]1C[C@@H]2[C@](C)(N=C(N)C(C)(C)S2(=O)=O)c2cc(NC(=O)c3cnc(Cl)cn3)ccc2O1 [Example 75] ?
8.40

Next: COc1cnc(C(=O)Nc2ccc3c(c2)[C@@]2(C)N=C(N)C(C)(C)S(=O)(=O)[C@@H]2CCO3)c(C)n1 [Example 22]
7.77

Quick one: C[C@H]1C[C@@H]2[C@](C)(N=C(N)C(C)(C)S2(=O)=O)c2cc(NC(=O)c3cnc(OCc4ncco4)cn3)ccc2O1 [Example 76]
8.70
